In this section, each of the binders is paired with its reported Kd.
Biological target: T1, human RANKL (receptor activator of NF-κB ligand) (human, UniProt O14788 140-317, limits assumed)
T1 construct: also called hRANKL; hRANKL native trimer
T1 sequence: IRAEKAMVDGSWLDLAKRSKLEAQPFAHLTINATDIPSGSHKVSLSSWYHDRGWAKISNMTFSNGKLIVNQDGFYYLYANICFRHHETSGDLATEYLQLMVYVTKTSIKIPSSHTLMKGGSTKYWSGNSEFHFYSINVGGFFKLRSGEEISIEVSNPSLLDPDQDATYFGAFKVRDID
Test: SPR (BIACORE), purified antibody, 25°C
Provide the reading as a plain figure in nM.

- BINDER: "H4H009P (antibody, V domains shown, Purified antibody from clone 2H10) VH: QVQLVESGGGVVQPGRSLRLSCAASGFTFSGYGIHWVRQAPDKGLEWVAVISYDGTNKYYGDSVKGRFTISRDNTKNTLYLQMNSLRTEDTAVYYCAKSLSGTYWGYGMDVWGQGTTVTVS VL: DIQMTQSPSTLSASVGDRVTITCRASQNIGNWLAWYQQKPGKAPKLLIYKASSLQNGVPSRFSGSGSGTEFTLTISSLQPDDFATYYCQRYNSYSWTFGQGTKVEIK"
  Kd, nM: 0.173

Req: Any idea what its Kd is? The binder is H4H006P (antibody, V domains shown, Purified antibody from clone 2E11) VH: QVQLVESGGGVVQPGRSLRLSCAASGFTFGGYGMHWVRQAPDKGLEWVAVISYDGNNKYYVDSVKGRFTISRDNSKNMLYLQMNSLRAEDTAVYYCAKCLSGTYWGYGMDGWGQGTTVTVS VL: DIQMTQSPSTLSASVGDRVTITCRASQSISNWLAWYQQKPGKAPKLLIYKASNLQSGVPSRFSGSGSGTEFTLTISSLQPDDFATYYCQQYNNYSWTFGQGTKVEIK
Resp: 0.172

Req: Param item = H4H002P (antibody, V domains shown, Purified antibody from clone 1F8) VH: QVQLVESGGGVVQPGRSLRLSCAASGFTFTGYGMHWVRQAPDKGLEWVAVISYDGTNKYYVDSVKGRFTISRDNSQNTLYLQMNSLRAEDTAVYYCAKCLSGTYWGYGMDVWGQGTTVTVS VL: DIQMTQSPSTLSASVGDRVTITCRASRSINSWLAWYQQKPGKAPKLLIYKASSLESGVPSRFSGSGSGTEFTLTISSLQPDDFASYYCQQYNNYSWTFGQGTKVEIK ; retrieve measured Kd.
Resp: 0.262

Req: GET /values?readout=Kd&item= H4H010P (antibody, V domains shown, Purified antibody from clone 2H12) VH: QVQLVESGGGVVQPGRSLRLSCAASGFTFSGYGMHWVRQAPGKGLDWVTVISYDGSNKHYADSVKGRFTISRDNSKNTLYLQMSSLGPEDTAVYYCAKSLSGTYWGYGMDVWGQGTTVTVS VL: DIQMTQSPSTLSASVGDRVTITCRASQNISSWLAWYQQKPGKAPKLLIYKASSLESGVPSRFSGSGSGTEFTLTVSSLQPDDFATYYCQQYNRYSWTFGQGTKVEIK
Resp: 0.0697
